target: T1, HLA-A*02:01 (human); experiment: UV-ligand exchange ELISA (anti-β2m), peptide exchange yield grade
T1 construct: MHC class I monomer made peptide-receptive by UV cleavage of a UV-sensitive ligand; also called peptide-receptive MHC molecules
The following binders are shown together with reported peptide exchange yield values.

Param item = YLKDGDVML [peptide YLKDGDVML (SEQ ID NO: 20)] ; retrieve measured peptide exchange yield.
50 to 75%

What do you get for ILLEKSVSV [peptide ILLEKSVSV (SEQ ID NO: 34)] ?
50 to 75%
